System: sorbitol accumulation in tissues
Test: Inhibitory action on sorbitol accumulation in tissues of rats with experimental (streptozotocin) diabetes
Assay type: in vivo, Sprague-Dawley rats
Conditions: 10 mg/kg orally at 4, 8 and 24 hours after streptozotocin; measured 3 hours after final administration; control taken as 100%
Marks after values point to notes of the source that are not given here.
Field: Sorbitol accumulation (%) erythrocytes. Provide a value for each of the molecules that follow.

Task: So what does the record say about Sorbitol accumulation (%) erythrocytes for O=C(O)CC1Oc2ccccc2N(Cc2nc3cc(F)cc(F)c3s2)C1=O (stereo not shown) ?
Output: 27.2** %

Task: So what does the record say about Sorbitol accumulation (%) erythrocytes for O=C(O)CC1Oc2ccccc2N(Cc2nc3c(F)c(F)cc(F)c3s2)C1=O (stereo not shown) ?
Output: 22.2** %

Task: So what does the record say about Sorbitol accumulation (%) erythrocytes for O=C(O)CC1Oc2cc(F)ccc2N(Cc2nc3c(F)c(F)cc(F)c3s2)C1=O (stereo not shown) ?
Output: 25.9** %

Task: So what does the record say about Sorbitol accumulation (%) erythrocytes for O=C(O)CC1Oc2cc(F)ccc2N(Cc2nc3c(F)c(F)ccc3s2)C1=O (stereo not shown) ?
Output: 32.4** %

These entries and their values trace back to patent EP0738727B1.
